Test system: HOP-62 NSCLC
Assay: NCI-60 one-dose screen, 48 h (100 = growth as untreated, 0 = no growth, -100 = all killed)
Conditions: 10 µM unless noted
Compounds without any hit were thinned out: in the full panel of roughly 83,000, 20% have a hit.
measured property: growth (%)
Give the value in % but do not write % after it.

COc1ccc2c(c1)c(-c1ccc(-c3cn(C)c4ccc(OC)cc34)o1)cn2C = 93.2
CN1CCN(CC(=O)N2c3cccc4cccc(c34)N(C(=O)CN3CCN(C)CC3)C2c2cn(-c3ccccc3)nc2-c2cccc([N+](=O)[O-])c2)CC1 = -20.2
O=C(O)c1cn(C2CC2)c2cc(N3CCN(C(=O)Nc4nc(-c5ccc(Cl)cc5)cs4)CC3)c(F)cc2c1=O = 20.5

Continue with the molecule presented below.
Which growth is reported for this molecule? Cc1ccc(-c2nc(N3CCN(CC(=O)Nc4ccc(Cl)c(C(F)(F)F)c4)CC3)c3ccccc3n2)cc1
98.6
